# SYSTEM: UniProt:P13569
# ASSAY_OVERVIEW: Corrector Assay B - membrane potential dye assay (enteroid cells);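 also: methyl oxonol membrane potential fluorescence followed over 15 min after switching to chloride-free buffer with forskolin, 100 µM IBMX and ivacaftor, in presence of CaCC blockers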
# EXPERIMENTAL_PARAMETERS: % of chloride transport of triple combination control (3 μM Compound A + 3 μM tezacaftor + 300 nM ivacaftor)
READOUT_NAME: Corrector Assay B % activity

• CC1(C)CC2CC(c3ccccc3)CNc3cccc(n3)S(=O)(=O)NC(=O)c3ccc(-n4ccc(OCCC5(C(F)(F)F)CC5)n4)nc3N1C2 (single isomer, unassigned) [Compound 391] = +++ (+++ is >60%)
• CC1(C)C[C@@H]2CCCN(CCC#N)c3cccc(n3)S(=O)(=O)NC(=O)c3ccc(-n4ccc(OCCC5(C(F)(F)F)CC5)n4)nc3N1C2 = +++ (+++ is >60%)
• CC1(C)CC2CCC(c3ccccc3)Nc3cccc(n3)S(=O)(=O)NC(=O)c3ccc(-n4ccc(OCCC5(C(F)(F)F)CC5)n4)nc3N1C2 (single isomer, unassigned) [Compound 384] = ++ (++ is 30-60%)
• CC1(C)CC2CC(c3ccccc3)CNc3cccc(n3)S(=O)(=O)NC(=O)c3ccc(-n4ccc(OCCC5(C(F)(F)F)CC5)n4)nc3N1C2 (single isomer, unassigned) [Compound 392] = ++ (++ is 30-60%)
• CC1(C)C[C@@H]2CCC(c3ccccc3)Nc3cccc(n3)S(=O)(=O)NC(=O)c3ccc(-n4ccc(OCCC5C6(CC6)C56CC6)n4)nc3N1C2 (single isomer, unassigned) [Compound 363] = +++ (+++ is >60%)
• CC1(C)CC2CC(c3ccccc3)CNc3cccc(n3)S(=O)(=O)NC(=O)c3ccc(-n4ccc(OCCC5(C(F)(F)F)CC5)n4)nc3N1C2 (single isomer, unassigned) [Compound 389] = +++ (+++ is >60%)
• CCCC1(C)CC2CCCNc3cccc(n3)S(=O)(=O)NC(=O)c3ccc(-n4ccc(OCCC5(C(F)(F)F)CC5)n4)nc3N1C2 (single isomer, unassigned) [Compound 367] = ++ (++ is 30-60%)
• CC(C)(C)c1ccc2c(n1)N1C[C@@H](CC[C@@H](c3ccccc3)Nc3cccc(n3)S(=O)(=O)NC2=O)CC1(C)C (single isomer, unassigned) [Compound 295] = +++ (+++ is >60%)
• CC1(C)C[C@@H]2CCCn3nnnc3CNc3cccc(n3)S(=O)(=O)NC(=O)c3ccc(-n4ccc(OCCC5(C(F)(F)F)CC5)n4)nc3N1C2 = +++ (+++ is >60%)
• CC1(C)C[C@@H]2CCC(c3ccccn3)Nc3cccc(n3)S(=O)(=O)NC(=O)c3ccc(-n4ccc(OCCC5(C(F)(F)F)CC5)n4)nc3N1C2 (single isomer, unassigned) [Compound 362] = +++ (+++ is >60%)
• CC(C)(C)c1ccc2c(n1)N1C[C@@H](CCC(c3ccccn3)Nc3cccc(n3)S(=O)(=O)NC2=O)CC1(C)C (single isomer, unassigned) [Compound 293] = +++ (+++ is >60%)
• CC(C)C1CC[C@@H]2CN(c3nc(-n4ccc(OCCC5(C(F)(F)F)CC5)n4)ccc3C(=O)NS(=O)(=O)c3cccc(n3)N1)C(C)(C)C2 (single isomer, unassigned) = +++ (+++ is >60%)
• CC1(C)C[C@@H]2CCC(c3cncnc3)Nc3cccc(n3)S(=O)(=O)NC(=O)c3ccc(-n4ccc(OCCC5(C(F)(F)F)CC5)n4)nc3N1C2 (single isomer, unassigned) [Compound 375] = +++ (+++ is >60%)
• CC(C)(C)c1ccc2c(n1)N1C[C@@H](CCC(c3cncnc3)Nc3cccc(n3)S(=O)(=O)NC2=O)CC1(C)C (single isomer, unassigned) [Compound 297] = +++ (+++ is >60%)
• CC1(C)C[C@@H]2CCC(c3ccc(C(=O)O)cc3)Nc3cccc(n3)S(=O)(=O)NC(=O)c3ccc(-n4ccc(OCCC5(C(F)(F)F)CC5)n4)nc3N1C2 (single isomer, unassigned) [Compound 371] = +++ (+++ is >60%)
• CC1(C)C[C@@H]2CCCN(CC(O)CO)c3cccc(n3)S(=O)(=O)NC(=O)c3ccc(-n4ccc(OCCC5(C(F)(F)F)CC5)n4)nc3N1C2 (stereo partly drawn) = +++ (+++ is >60%)
• CC(C)(C)c1ccc2c(n1)N1C[C@@H](CCCNc3cccc(n3)S(=O)(=O)NC2=O)CC1(C)C = +++ (+++ is >60%)
• CCCC1(C)CC2CCCNc3cccc(n3)S(=O)(=O)NC(=O)c3ccc(-n4ccc(OCCC5(C(F)(F)F)CC5)n4)nc3N1C2 (single isomer, unassigned) [Compound 365] = + (+ is <30%)
• CC1(C)C[C@@H]2CCCN(Cc3nn[nH]n3)c3cccc(n3)S(=O)(=O)NC(=O)c3ccc(-n4ccc(OCCC5(C(F)(F)F)CC5)n4)nc3N1C2 = +++ (+++ is >60%)
• CCCC1(C)CC2CCCNc3cccc(n3)S(=O)(=O)NC(=O)c3ccc(-n4ccc(OCCC5(C(F)(F)F)CC5)n4)nc3N1C2 (single isomer, unassigned) [Compound 366] = + (+ is <30%)
• CC1(C)C[C@@H]2CCCN(CCC(N)=O)c3cccc(n3)S(=O)(=O)NC(=O)c3ccc(-n4ccc(OCCC5(C(F)(F)F)CC5)n4)nc3N1C2 = +++ (+++ is >60%)
